# PROCEDURE DETAILS: Cytotoxicity against New Zealand white rabbit neutrophils assessed as cell viability at 50 uM after 30 mins by trypan blue exclusion test
# Assay type: cell-based, Oryctolagus cuniculus, Neutrophil
# EXPERIMENTAL SETUP: read-out: Activity
MEASURED METRIC: viability at 0.5 h, 50 µM (%)
Report the figure in % without appending any unit label.

Solved entries (count: 3):
LINE NOTATION: COC(=O)Oc1ccc2oc(=O)c(-c3ccc(OC(=O)OC)c(OC(=O)OC)c3)cc2c1
viability at 0.5 h, 50 µM [%]: 93.3

LINE NOTATION: O=c1oc2ccc(O)cc2cc1-c1ccc(O)cc1
viability at 0.5 h, 50 µM [%]: 89.5

LINE NOTATION: O=c1oc2ccccc2cc1-c1ccccc1
viability at 0.5 h, 50 µM [%]: 90.3

**Q:** Record request: viability at 0.5 h, 50 µM value, item COC(=O)Oc1ccc2oc(=O)c(-c3ccccc3)cc2c1
**A:** 93.8

**Q:** How about this molecule: O=c1oc2ccccc2cc1-c1ccc2c(c1)OCO2
**A:** 96

**Q:** How about this molecule: O=c1oc2cc(O)c(O)cc2cc1-c1ccc2c(c1)OCO2
**A:** 93.2
